System: HOP-62
experiment_summary: NCI tumour cell line growth inhibition, 48 h
Calls of active or inactive are those of the source. Rule as the data show it: active = GI50 up to about 1.1 µM and inactive = higher.
Permitted responses: active, inactive

# example entries with known answers
Request: Recorded test outcome, item CCOP(=O)(OCC)C(F)(F)CC1CCCCC1
Response: inactive

Request: Please indicate how the test categorized COc1ccc(C(F)(F)F)cc1NC(=O)O/N=C(/Cl)C(C)C .
Response: inactive

Request: Call for entry O=C(O)c1ccccc1.[Ag] :
Response: inactive

More entries:
Request: GET /call?item= CC(=O)Nc1ccc(C(=O)N[C@@H]2C(=O)N3[C@@H]2SC(C)(C)[C@@H]3C(=O)O)cn1 returns the recorded outcome of this test.
Response: inactive

Request: Name the outcome recorded for CC(C)(C)OC(=O)Cn1ncn(NC(=O)Cc2ccccc2)c1=S in the assay.
Response: inactive

Request: Recorded call for C/C(=N\NC(=S)N1CCCCCCCCCCCC1)c1ccccn1 ?
Response: active

Request: GET /call?item= Clc1ccccc1NN(Cc1ccccn1)c1ccccc1Cl returns the recorded outcome of this test.
Response: inactive

Request: Which outcome did this test record for the compound COc1c(C)c2c(c3c1c(=O)c1ccccc1n3C)C=CC(C)(C)O2 ?
Response: inactive

Request: Which result was noted for this compound in the test: NC(=O)c1ccccc1NC(=O)C(=O)C(C(=O)c1ccc(Cl)c(Cl)c1)C1OC(=O)c2ccccc21 (configuration not stated)
Response: inactive

###

System: CAKI-1
experiment_summary: NCI tumour cell line growth inhibition, 48 h
Activity calls are given as the source filed them. Rule as the data show it: active = GI50 up to about 1.1 µM and inactive = higher.
measurement_name: GI50

Request: GET /values?readout=GI50&item= CCC1=NC(N/N=C/c2ccccc2O)=N/C1=C\c1ccccc1O
Response: 19.6 µM (inactive)

Request: So what does the record say about GI50 for Cc1cc(=O)[nH]c2cc(NC(=O)C(C)NC(=O)C(C)NC(=O)C(C)NC(=O)OC(C)(C)C)ccc12 (configuration not stated) ?
Response: > 15 µM (inactive)

Request: Recorded GI50 of CN(C)c1ccc(/C=c2\sc3nnc(Cc4ccccc4)n3c2=O)cc1 , please.
Response: > 10 µM (inactive)

---
Request: Give its GI50 value. Item: CCc1cn(C2CC(CO)C(CO)S2)c(=O)[nH]c1=O (configuration not stated)
Response: > 100 µM (inactive)

Request: Which GI50 reading was recorded for the compound c1ccc2c(-c3csc(-c4c[nH]c5ccccc45)n3)c[nH]c2c1 ?
Response: > 100 µM (inactive)

Request: Which value of GI50 has been reported for COC1(OC)C[C@H](C)[C@@]23O[C@]24c2cc(O)c5c(c2N[C@H]3C#C/C=C\C#C[C@]14O)C(=O)c1ccccc1C5=O in the records?
Response: 0.005 µM (active)

Request: Fill in the blank: the reported GI50 of COc1c(C)c2c(c3c1c(=O)c1ccccc1n3C)C=CC(C)(C)O2 is ____.
Response: 26.2 µM (inactive)

Request: Query (compound): COc1ccc2occ(CCC(=O)O)c2c1 ; field requested: GI50
Response: > 100 µM (inactive)

Request: Which measured GI50 value corresponds to COC(=O)[C@]1(C)CCC[C@]2(C)C3CC4OOC3(C=C4C(C)(C)O)CCC21 (some centres not stated) ?
Response: 64.6 µM (inactive)

Request: Any idea what GI50 was measured for Cc1cc([N+](=O)[O-])ccc1Sc1c2ccccc2nc2ccccc12 ?
Response: 26.4 µM (inactive)
